Tested on: Pseudomonas aeruginosa NCTC 10490
EXPERIMENTAL_PROTOCOL: MIC, dilution method on microplates (NCCLS M7-A2)
Format: cell-based
TEST_CONTEXT: NCTC10490
ASSAY_METRIC: MIC (µg/mL)
Report the value in µg/mL with no unit label.

Illustrative cases are given below, each with its answer.
| RECORD_SMILES | ASSAY_METRIC | READOUT_VALUE |
| --- | --- | --- |
| CC[C@H]1OC(=O)[C@H](C)[C@@H](O[C@H]2C[C@@](C)(OC)[C@@H](O)[C@H](C)O2)[C@H](C)[C@@H](O[C@@H]2O[C@H](C)C[C@H](N(C)C)[C@H]2O)[C@](C)(O)C[C@@H](C)CN(C(=O)NC(C)C)[C@H](C)[C@@H](O)[C@]1(C)O | MIC | 25 |
| CC[C@H]1OC(=O)[C@H](C)[C@@H](O[C@H]2C[C@@](C)(OC)[C@@H](O)[C@H](C)O2)[C@H](C)[C@@H](O[C@@H]2O[C@H](C)C[C@H](N(C)C)[C@H]2O)[C@](C)(O)C[C@@H](C)CN(C(=S)NCc2ccccc2)[C@H](C)[C@@H](O)[C@]1(C)O | MIC | 50 |
| CC[C@H]1OC(=O)[C@H](C)[C@@H](O[C@H]2C[C@@](C)(OC)[C@@H](O)[C@H](C)O2)[C@H](C)[C@@H](O[C@@H]2O[C@H](C)C[C@H](N(C)C)[C@H]2O)[C@](C)(O)C[C@@H](C)CN[C@H](C)[C@@H](O)[C@]1(C)O | MIC | 25 |
| CC[C@H]1OC(=O)[C@H](C)[C@@H](O[C@H]2C[C@@](C)(OC)[C@@H](O)[C@H](C)O2)[C@H](C)[C@@H](O[C@@H]2O[C@H](C)C[C@H](N(C)C)[C@H]2O)[C@](C)(O)C[C@@H](C)CN(C(=O)Nc2ccncc2)[C@H](C)[C@@H](O)[C@]1(C)O | MIC | 50 |
| CC[C@H]1OC(=O)[C@H](C)[C@@H](O[C@H]2C[C@@](C)(OC)[C@@H](O)[C@H](C)O2)[C@H](C)[C@@H](O[C@@H]2O[C@H](C)C[C@H](N(C)C)[C@H]2O)[C@](C)(O)C[C@@H](C)CN(C(=O)Nc2ccccc2)[C@H](C)[C@@H](O)[C@]1(C)O | MIC | 50 |

// field: MIC; key: CC[C@H]1OC(=O)[C@H](C)[C@@H](O[C@H]2C[C@@](C)(OC)[C@@H](O)[C@H](C)O2)[C@H](C)[C@@H](O[C@@H]2O[C@H](C)C[C@H](N(C)C)[C@H]2O)[C@](C)(O)C[C@@H](C)CN(C(=O)NCc2ccccc2)[C@H](C)[C@@H](O)[C@]1(C)O ; value = 50

====

Tested on: Bacillus subtilis NCTC 8236
ASSAY_METRIC: MIC

The recorded MIC for CC[C@H]1OC(=O)[C@H](C)[C@@H](O[C@H]2C[C@@](C)(OC)[C@@H](O)[C@H](C)O2)[C@H](C)[C@@H](O[C@@H]2O[C@H](C)C[C@H](N(C)C)[C@H]2O)[C@](C)(O)C[C@@H](C)CN(C(=O)Nc2ccncc2)[C@H](C)[C@@H](O)[C@]1(C)O is 25 µg/mL
